This collection of values is drawn from patent US20230372381A1.

Measured CC50 by item
Assay: in vitro
Conditions: African green monkey

# compound, CC50
rows = [
    ("CC(C)(C)NC(=O)N[C@H](C(=O)N1C[C@H]2[C@@H]([C@H]1C(=O)NC(CC1CCC1)C(=O)C(N)=O)C2(C)C)C(C)(C)C (some centres unmarked)", "> 50 µM"),
]

Moving on to the next compound.
// sample `Cc1cnc(C(=O)N[C@H]2CCCCC/C=C\[C@@H]3C[C@@]3(C(=O)NS(=O)(=O)C3CC3)NC(=O)[C@@H]3C[C@@H](Oc4nc5ccccc5c5ccccc45)CN3C2=O)cn1` , its CC50 was > 100 µM

====

Measured CC50 by item
System: Vero E6 cells
Experiment: Cytotoxicity MTT assay in Vero E6 cells
Details: cytotoxicity, Vero E6 Cells
Number only, in µM; omit the unit.

# cpdSmiles, endpoint, unitSpec, readoutValue
measured = [
    ("CC[C@@H]1C[C@]1(NC(=O)[C@@H]1C[C@@H]2CN1C(=O)[C@H](C(C)(C)C)NC(=O)OCC(C)(C)CCCCc1cccc3c1CN(C3)C(=O)O2)C(=O)NS(=O)(=O)C1CC1", "CC50", "µM", 4.3),
]

// sample `COc1ccc2c(O[C@@H]3C[C@H]4C(=O)N[C@]5(C(=O)NS(=O)(=O)C6CC6)C[C@H]5/C=C\CCCCN(C)C(=O)[C@@H]4C3)cc(-c3nc(C(C)C)cs3)nc2c1C` , its CC50 was 2.1
